TGI reference
- System: RPMI-8226 leukemia
- Assay info: NCI tumour cell line growth inhibition, 48 h

Known results for compounds:
1. O=C(CSCC(=O)N/N=C/c1ccc(F)cc1)N/N=C/c1ccc(F)cc1; > 100 µM
2. COc1ccccc1NC(=O)CC(=O)NNCC(=O)Nc1nc(-c2ccccc2)cs1; > 100 µM

Turning now to a further compound:
Record Cn1c(=O)c2[nH]c(Nc3ccccc3)nc2n(C)c1=O . Reported TGI: > 10 µM

---

TGI reference
- System: CCRF-CEM leukemia
- Assay info: NCI tumour cell line growth inhibition, 48 h

Known results for molecules:
1. C/C(=C/CC[C@](C)(OC1OC(CO)C(O)C(O)C1OC1OC(C)C(O)C(O)C1O)[C@H]1CC[C@]2(C)[C@@H]1CC[C@@H]1[C@@]3(C)CC[C@H](O)C(C)(C)[C@@H]3C[C@H](O)[C@]12C)CO (stereo partly drawn); > 100 µM
2. CC(C)(C)NC(=O)C12C3C4C1C1C2C3C41I (stereo not drawn); > 100 µM

Item CCOC(=O)C(C(N)=O)c1nc2cc([N+](=O)[O-])ccc2nc1/C=C(\O)c1ccc(C)cc1 (stereo not drawn) ; assay system CCRF-CEM leukemia; TGI reported as > 100 µM

---

TGI reference
- Tested on: CAKI-1 renal
- Assay info: NCI tumour cell line growth inhibition, 48 h

1) C/C(=N\NC(=S)N/N=C(\C)c1ccccn1)c1ccccn1; 5.24 µM
2) Cc1ccc(NC(=O)C(=O)C2C(=O)C3=C(CC2(C)C)NC2C=CC=CC2S3)c(C)c1 (stereo not drawn); > 100 µM

Record CC(CC(C)[C@H]1CCC2[C@H]3C(CC[C@@]21C)[C@@]1(C)CCC(O)C[C@H]1C[C@@H]3O)C(=O)O (stereo partly drawn) . Reported TGI: > 100 µM

---

TGI reference
- Test system: LOX IMVI melanoma
- Assay info: NCI tumour cell line growth inhibition, 48 h

1. COC(CO[Si](C)(C)N[Si](C)(C)OCC(OC)c1ccccc1)c1ccccc1 (stereo unspecified); > 100 µM
2. COC(=O)CC[C@@H](NC(=O)C(C)NC(=O)COC1C(O)C(COC(=O)CCCCCCCCCCNC(=O)c2ccc([N+](=O)[O-])c3[nH]c4cc(Br)ccc4c(=O)c23)OC(OCc2ccccc2)C1NC(C)=O)C(N)=O (stereo partly specified); > 100 µM
3. NC1=CN2c3ccccc3N(CC(=O)N3CCOCC3)C2C=C1 (stereo unspecified); > 100 µM

Turning now to a further compound:
Record NC(=O)c1ccc(N)nc1 . Reported TGI: > 400 µM

---

- Test system: OVCAR-4 ovarian
- Assay info: NCI tumour cell line growth inhibition, 48 h
Result type: TGI

Known results for molecules:
1) COC(=O)C(=O)C(C(=O)C(=O)Nc1ccc(Cl)cc1Cl)c1nc2ccc(Cl)cc2[nH]c1=O (stereo not drawn); > 100 µM
2) OCCOCn1nc(-c2ccccc2)nc1-c1cnccn1; > 100 µM

Turning now to a further molecule:
Item Clc1ccc2nc3c(c(-c4ccccc4)nn3-c3ccccc3)c(-c3ccccc3)c2c1 ; assay system OVCAR-4 ovarian; TGI reported as > 100 µM

---

- Tested on: SNB-75 CNS
- Assay info: NCI tumour cell line growth inhibition, 48 h
Result type: TGI

Record O=C(CSCC(=O)N/N=C/c1ccc(F)cc1)N/N=C/c1ccc(F)cc1 . Reported TGI: > 100 µM

Record N.N.NCCCCN.O=C([O-])CCl.O=C([O-])CCl.O=C([O-])CCl.O=C([O-])CCl.[Pt+4].[Pt+4] . Reported TGI: > 50 µM

Record COc1ccc2c(c1)Cc1cc(N=[N+]([O-])c3ccc4c(c3)Cc3cc(OC)ccc3-4)ccc1-2 . Reported TGI: > 100 µM

---

- System: HL-60(TB) leukemia
- Assay info: NCI tumour cell line growth inhibition, 48 h
Result type: TGI (µM)
Kindly provide the numeric value in µM only, without the unit symbol.

1) C=CC[n+]1c(/C=C2\Sc3ccccc3N2C)sc(-c2ccccc2)c1-c1ccccc1; 0.665

Record c1ccc2c3c(c(N4CCNCC4)nc2c1)CCCC3 . Reported TGI: 24.3

Record COc1ccc(-c2ccc(/C=N/n3cnn(CN4CCN(C)CC4)c3=S)o2)c([N+](=O)[O-])c1 . Reported TGI: 49.9

---

- Tested on: HL-60(TB) leukemia
- Assay info: NCI tumour cell line growth inhibition, 48 h
TGI reference

Known results for molecules:
1. COC(CO[Si](C)(C)N[Si](C)(C)OCC(OC)c1ccccc1)c1ccccc1 (stereo unspecified); > 100 µM
2. CC(=N\O)/C(C)=N/O.CC(=N\O)/C(C)=N/O.[Pd]; > 10 µM
3. Nc1ccc(Cl)cc1.Nc1ccc(Cl)cc1.Nc1ccc(Cl)cc1.O=C([O-])C(=O)[O-].O=C([O-])C(=O)[O-].[H+].[Ru+5]; > 87.8 µM

Item COc1cc(C=C2C(=O)OC(C)(C)OC2=O)cc(OC)c1OC ; assay system HL-60(TB) leukemia; TGI reported as > 100 µM

Item CCOC(=O)Cn1c(=O)c2cc(C)cc3c(Cl)nc4c(OC)c(OC)cc1c4c32 ; assay system HL-60(TB) leukemia; TGI reported as > 100 µM

Item Cc1cc2nc(N)n[n+]([O-])c2cc1C ; assay system HL-60(TB) leukemia; TGI reported as > 100 µM

Item CC(CC(C)[C@H]1CCC2[C@H]3C(CC[C@@]21C)[C@@]1(C)CCC(O)C[C@H]1C[C@@H]3O)C(=O)O (stereo partly specified) ; assay system HL-60(TB) leukemia; TGI reported as > 100 µM

Item CC1(C)OC2C(CO)OC(/N=C(\NC#N)Oc3ccccc3)C2O1 (stereo unspecified) ; assay system HL-60(TB) leukemia; TGI reported as > 100 µM

Item COC1=C(NC(C)=O)C(=O)c2nc3n(c2C1=O)CCC3 ; assay system HL-60(TB) leukemia; TGI reported as > 30.4 µM

Item Cc1cc([C@H](C#N)c2nc3ccccc3s2)nc(Cl)n1 ; assay system HL-60(TB) leukemia; TGI reported as > 100 µM

Item CN(CCN(C)Cc1ccc(Cl)c(Cl)c1)CCN1CCCC1 ; assay system HL-60(TB) leukemia; TGI reported as > 100 µM

---

- Tested on: T-47D breast
- Assay info: NCI tumour cell line growth inhibition, 48 h
Result type: TGI

Known results for molecules:
1) COc1cc(CNc2nc3cc(C(F)(F)F)ccc3nc2C(=O)O)cc(OC)c1OC; 83.8 µM
2) O=C1CCCc2ccc3c(c21)CC1(Cc2cc4c(cc2C1)CCCC4)C3; 23.2 µM
3) O=C(/C=C/c1ccccc1O)CC(=O)/C=C/c1ccccc1O; > 31.6 µM
4) Clc1ccc2nc3c(c(-c4ccccc4)nn3-c3ccccc3)c(-c3ccccc3)c2c1; > 100 µM

Record CS(=O)(=O)c1ccc(C2=C(c3ccccc3)C(=O)OC2)cc1 . Reported TGI: > 100 µM

Record Cc1cc(CC(O)(C(F)(F)F)C(F)(F)F)cc(CC(O)(C(F)(F)F)C(F)(F)F)n1 . Reported TGI: 7.3 µM

Record O=C(NCCc1ccc(F)cc1)c1cc(/C=C/c2cc(O)ccc2O)ccc1O . Reported TGI: 5.28 µM

---

- System: HT29 colon
- Assay info: NCI tumour cell line growth inhibition, 48 h
GI50 reference

1. COc1cc(C2C3=C(COC3=O)N(CCO)c3cc4c(cc32)OCCO4)cc(OC)c1O (centres undefined); 1.67 µM
2. COc1cc(C2CC(c3ccc(C)cc3)=NN2C(C)=O)ccc1Oc1ccnc2cc(Cl)ccc12 (centres undefined); > 100 µM
3. COc1cccc(-n2cnc3c(N/N=C/c4ccncc4)ncnc32)c1; 8.07 µM

Turning now to a further compound:
Record COc1ccc(-n2cc(-c3ccc(Cl)cc3)[nH]c2=S)cc1Cl . Reported GI50: 74.2 µM

---

- Tested on: SR leukemia
- Assay info: NCI tumour cell line growth inhibition, 48 h
Where a SMILES comes first, the peptide text is derived from it. The star is where a group is joined. Boc = CC(C)(C)OC(=O)*; OBn = c1ccc(CO*)cc1; Bn = c1ccc(C*)cc1
Result type: TGI

Known results for compounds:
1) Nc1ccc(Cl)cc1.Nc1ccc(Cl)cc1.Nc1ccc(Cl)cc1.O=C([O-])C(=O)[O-].O=C([O-])C(=O)[O-].[H+].[Ru+5]; > 100 µM
2) O=C(NCCc1ccc(F)cc1)c1cc(/C=C/c2cc(O)ccc2O)ccc1O; > 30 µM
3) CN1CCN(c2nc(NCCNc3ccnc4cc(Cl)ccc34)c3ccccc3n2)CC1; 3.67 µM
4) NNC(=S)N/N=C(\c1nc2ccc(Cl)cc2[nH]c1=O)C(O)c1ccc(Cl)cc1Cl (centres undefined); > 100 µM

Record CC(C)CC(NC(=O)C(CCC(=O)OCc1ccccc1)NC(=O)OC(C)(C)C)C(=O)NC(COCc1ccccc1)C(=O)NC(Cc1ccccc1)C(=O)O (centres undefined) (Boc-E(OBn)LS(Bn)F-OH; configuration not given here) . Reported TGI: > 100 µM

Record CC(CCC(=O)O)(c1cc(Br)c(O)c(Br)c1)c1cc(Br)c(O)c(Br)c1 . Reported TGI: > 100 µM

Record Clc1ccc2nc3c(c(-c4ccccc4)nn3-c3ccccc3)c(-c3ccccc3)c2c1 . Reported TGI: > 100 µM

Record Nc1nc(Cl)cc2c1ncn2C1OC(CO)C(O)C1O (centres undefined) . Reported TGI: > 100 µM

Record COc1cc(OC)c(Oc2cccc(OC)c2OC)c(OC)c1 . Reported TGI: > 100 µM
